# assay_comment: Distribution coefficient, log D of the compound
# Type: physicochemical
# cond: chromatographic hydrophobicity index (CHI) at pH 7.4
measure: logD

# compound, logD
records = [
    ("CC(C)N(C)Cc1nccn1-c1ccc(N2CCC(NS(=O)(=O)/C=C/c3ccc(Cl)s3)C2=O)c(F)c1 (configuration not stated)", 2.7),
    ("CN(C)Cc1nccn1-c1ccc(N2CCC(NS(=O)(=O)c3cc4ccc(Cl)cc4s3)C2=O)c(F)c1 (configuration not stated)", 2.58),
    ("CN(C)Cc1nccn1-c1ccc(N2CCC(NS(=O)(=O)c3cc4cc(Cl)ccc4s3)C2=O)c(F)c1 (configuration not stated)", 2.59),
]

I: C/C(=C\S(=O)(=O)NC1CCN(c2ccc(-n3cncc3CN(C)C)cc2F)C1=O)c1ccc(Cl)s1 (configuration not stated)
II: CN(C)Cc1ccnn1-c1ccc(N2CCC(NS(=O)(=O)c3cc4ccc(Cl)cc4s3)C2=O)c(F)c1 (configuration not stated)
Between the two listed entries I and II , which has its logD at the higher number? Selection: enter the item's label.
II

a: CNCc1nccn1-c1ccc(N2CCC(NS(=O)(=O)/C=C/c3ccc(Cl)s3)C2=O)c(F)c1 (configuration not stated)
b: CN(C)Cc1nocc1-c1ccc(N2CCC(NS(=O)(=O)/C=C/c3ccc(Cl)s3)C2=O)c(F)c1 (configuration not stated)
Between the two listed entries a and b , which has its logD at the higher number? Selection: enter the item's label.
b

a: CN(C)Cc1ccn(-c2ccc(N3CCC(NS(=O)(=O)c4cc5ccc(Cl)cc5s4)C3=O)c(F)c2)n1 (configuration not stated)
b: C/C(=C\S(=O)(=O)NC1CCN(c2ccc(-n3cnc(CN(C)C)c3)cc2F)C1=O)c1ccc(Cl)s1 (configuration not stated)
Between the two listed entries a and b , which has its logD at the higher number? Selection: enter the item's label.
a
(a: 2.4, b: 1.64)

###

# assay_comment: Distribution coefficient, log D of the compound
# Format: physicochemical
# cond: chromatographic hydrophobicity index (CHI) at pH 7.4
measure: logD

# compound, logD
rows = [
    ("CN(C)Cc1nccn1-c1ccc(N2CCC(NS(=O)(=O)c3ncc(-c4ccc(Cl)s4)s3)C2=O)c(F)c1 (stereo not given)", 2.75),
    ("CN(C)Cc1nccn1-c1ccc(N2CCC(NS(=O)(=O)c3ccc4cc(Cl)ccc4c3)C2=O)c(F)c1 (stereo not given)", 2.55),
    ("CN(C)Cc1nccn1-c1ccc(N2CCC(NS(=O)(=O)c3ccc4[nH]cc(Cl)c4c3)C2=O)c(F)c1 (stereo not given)", 1.76),
    ("CN(C)Cc1nccn1-c1ccc(N2CCC(NS(=O)(=O)/C=C/c3ccc(Cl)s3)C2=O)c(F)c1 (stereo not given)", 2.54),
    ("CN(C)Cc1nccn1-c1ccc(N2CCC(NS(=O)(=O)CCc3ccc(Cl)s3)C2=O)c(F)c1 (stereo not given)", 2.32),
]

###

# assay_comment: Half life in Sprague-Dawley rat
# Format: ADME, organism-based
# cond: in vivo
measure: half-life (min)

# compound, half-life, min
records = [
    ("C/C(=C\\S(=O)(=O)NC1CCN(c2ccc(-n3ccnc3CN(C)C)cc2F)C1=O)c1ccc(Cl)s1 (stereo not drawn)", 48),
    ("CN(C)Cc1nccn1-c1ccc(N2CCC(NS(=O)(=O)/C=C/c3ccc(Cl)s3)C2=O)c(F)c1 (stereo not drawn)", 60),
    ("CN(C)Cc1nccn1-c1ccc(N2CCC(NS(=O)(=O)CCc3ccc(Cl)s3)C2=O)c(F)c1 (stereo not drawn)", 48),
]

###

# assay_comment: Dissociation constant, pKa of the compound
# Format: physicochemical
measure: pKa

# compound, measured_result
records = [
    ("O=C1C(NS(=O)(=O)/C=C/c2ccc(Cl)s2)CCN1c1ccc(-n2ccnc2CN2CCCC2)cc1F (stereo not drawn)", 7.95),
    ("O=C1C(NS(=O)(=O)/C=C/c2ccc(Cl)s2)CCN1c1ccc(-n2ccnc2CN2CCOCC2)cc1F (stereo not drawn)", 5.75),
    ("CN(C)Cc1nccn1-c1ccc(N2CCC(NS(=O)(=O)/C=C/c3ccc(Cl)s3)C2=O)c(F)c1 (stereo not drawn)", 7.26),
]

###

# assay_comment: Distribution coefficient, log D of the compound
# Format: physicochemical
# cond: chromatographic hydrophobicity index (CHI) at pH 7.4
measure: logD

# molecule, measured_result
measured = [
    ("O=C1C(NS(=O)(=O)/C=C/c2ccc(Cl)s2)CCN1c1ccc(-n2ccnc2CN2CCCC2)cc1F (stereo not drawn)", 2.21),
    ("CCN(C)Cc1nccn1-c1ccc(N2CCC(NS(=O)(=O)/C=C/c3ccc(Cl)s3)C2=O)c(F)c1 (stereo not drawn)", 2.48),
    ("C/C(=C\\S(=O)(=O)NC1CCN(c2ccc(-n3ccnc3CN(C)C)cc2F)C1=O)c1ccc(Cl)s1 (stereo not drawn)", 2.44),
    ("CN(C)Cc1cn(-c2ccc(N3CCC(NS(=O)(=O)c4cc5ccc(Cl)cc5s4)C3=O)c(F)c2)cn1 (stereo not drawn)", 1.82),
    ("CN(C)Cc1nccn1-c1ccc(N2CCC(NS(=O)(=O)c3ccc4c(Cl)c[nH]c4c3)C2=O)c(F)c1 (stereo not drawn)", 1.98),
    ("O=C1C(NS(=O)(=O)/C=C/c2ccc(Cl)s2)CCN1c1ccc(-n2ccnc2CN2CCC(F)C2)cc1F (stereo not drawn)", 2.58),
    ("C/C(=C\\S(=O)(=O)NC1CCN(c2ccc(-n3ccc(CN(C)C)n3)cc2F)C1=O)c1ccc(Cl)s1 (stereo not drawn)", 2.2),
    ("O=C1C(NS(=O)(=O)/C=C/c2ccc(Cl)s2)CCN1c1ccc(-n2ccnc2CN2CCOCC2)cc1F (stereo not drawn)", 2.28),
]

Recorded values, source ChEMBL document CHEMBL1143208.
